- Test system: barnyardgrass (Echinochloa crus-galli)
- test description: Test G Pre-Emergence Protocol
- Type: in vivo
- stated conditions: Echinochloa crus-galli, pre-emergence, 312 h, 62.5 g ai/ha, evaluated after 13 days, 100=total damage to plant, 0=no damage to plant, read-out: Barnyardgrass damage rating
readout kind: pest or weed control at 62.5 g/ha (%)

compound: CN1CC(c2ccc(C(F)(F)F)c(C(F)(F)F)c2)C(C(=O)Nc2cccc(F)c2F)C1=O (stereo not shown)
readout number: 50
--
compound: CCc1cc([C@@H]2CN(C)C(=O)[C@H]2C(=O)Nc2cccc(F)c2C)ccc1Cl (racemic)
readout number: 80
--
compound: CN1C[C@H](c2cccc(C(F)(F)F)c2)[C@@H](C(=O)Nc2ccc3cccnc3n2)C1=O (racemic)
readout number: 0
--
compound: CN1C[C@H](c2cccc(C(F)(F)F)c2)[C@@H](C(=O)Nc2cnccc2C#N)C1=O (racemic)
readout number: 30

----------
- System: barnyardgrass (Echinochloa crus-galli)
- test description: Test A postemergence
- Type: in vivo
- stated conditions: 125 g ai/ha, postemergence; visual injury rating on 0 to 100 scale (0 no effect, 100 complete control), approx. 10 d
- Excerpt: […]

molecule: O=C1NCC(c2ccc(Br)cc2)C1C(=O)Nc1cccc(F)c1F (stereo not drawn)
Barnyardgrass plant response rating: 80

molecule: Cc1ccc(C2CNC(=O)C2C(=O)Nc2ccc(F)c(C)c2F)cc1F (stereo not drawn)
Barnyardgrass plant response rating: 70

molecule: O=C1NCC(c2ccc(Br)cc2)C1C(=O)Nc1ccccc1F (stereo not drawn)
Barnyardgrass plant response rating: 80

----------
Each item that follows carries a reported pest or weed control at 250 g/ha.
- Test system: barnyardgrass (Echinochloa crus-galli)
- test description: Test G Post-Emergence Protocol
- Type: in vivo
- stated conditions: Echinochloa crus-galli, post-emergence, 312 h, 250 g ai/ha, evaluated after 13 days, read-out: damage to plant, Barnyardgrass (100=total damage to plant; 0=no damage to plant)

compound: CN1C[C@@H](c2ccc(C(F)(F)F)cc2)[C@H](C(=O)Nc2cn(C)nn2)C1=O (racemic)
study system: barnyardgrass (Echinochloa crus-galli)
unit annotation: %
pest or weed control at 250 g/ha: 0

compound: COc1c(Cl)ccc([C@H]2CNC(=O)[C@@H]2C(=O)Nc2cccc(F)c2F)c1F (racemic)
study system: barnyardgrass (Echinochloa crus-galli)
unit annotation: %
pest or weed control at 250 g/ha: 50

compound: CN1C[C@@H](c2ccc(C(F)(F)F)cc2)[C@H](C(=O)Nc2nccc(=O)[nH]2)C1=O (racemic)
study system: barnyardgrass (Echinochloa crus-galli)
unit annotation: %
pest or weed control at 250 g/ha: 0

----------
Each item that follows carries a reported Plant response rating, Blackgrass.
- Test system: blackgrass (Alopecurus myosuroides)
- test description: Test A postemergence
- Format: in vivo
- stated conditions: Postemergence, 125 g ai/ha; visual injury, 0 to 100 scale (0 no effect, 100 complete control), approx. 10 d
readout kind: Plant response rating, Blackgrass

molecule: Cc1cccc(C2CNC(=O)C2C(=O)Nc2ccccc2C(F)(F)F)c1 (racemic)
readout number: 0
//
molecule: Cc1cccc(C2CNC(=O)C2C(=O)Nc2ccccc2F)c1 (racemic)
readout number: 20
//
molecule: CN1CC(c2cccc(OC(F)(F)C(F)F)c2)C(C(=O)Nc2cccc(F)c2F)C1=O (centres unmarked)
readout number: 70
//
molecule: Cc1ccc(C2CNC(=O)C2C(=O)Nc2ccc(F)cc2F)cc1F (racemic)
readout number: 0
//
molecule: O=C1NCC(c2cccc(OCC(F)F)c2)C1C(=O)Nc1cccc(F)c1F (centres unmarked)
readout number: 0

----------
- Tested on: barnyardgrass (Echinochloa crus-galli)
- test description: Test G Pre-Emergence Protocol
- Assay type: in vivo
- stated conditions: Echinochloa crus-galli, pre-emergence, 312 h, 62.5 g ai/ha, evaluated after 13 days, 100=total damage to plant, 0=no damage to plant, read-out: plant damage rating, Barnyardgrass

compound: CN1C[C@@H](c2ccc(C(F)(F)F)cc2)[C@H](C(=O)Nc2cccc(C(F)(F)F)n2)C1=O (racemic) [Compound 1563]
unit annotation: %
pest or weed control at 62.5 g/ha: 0
//
compound: Cc1c(Cl)ccc([C@@H]2CN(C)C(=O)[C@H]2C(=O)Nc2cccc(F)c2F)c1F (racemic) [Compound 1473]
unit annotation: %
pest or weed control at 62.5 g/ha: 40
//
compound: C=CCc1ccc(Cl)cc1NC(=O)[C@H]1C(=O)N(C)C[C@@H]1c1ccc(C(F)(F)F)cc1 (racemic) [Compound 1441]
unit annotation: %
pest or weed control at 62.5 g/ha: 0
//
compound: Cc1ccc([C@@H]2CN(C)C(=O)[C@H]2C(=O)Nc2cccc(F)c2F)cc1Cl (racemic) [Compound 1475]
unit annotation: %
pest or weed control at 62.5 g/ha: 70
//
compound: CC(C)c1cc(NC(=O)[C@@H]2C(=O)N(C)C[C@H]2c2ccc(C(F)(F)F)cc2)[nH]n1 (racemic) [Compound 1522]
unit annotation: %
pest or weed control at 62.5 g/ha: 0
//
compound: COc1cncc(NC(=O)[C@@H]2C(=O)N(C)C[C@H]2c2ccc(C(F)(F)F)cc2)n1 (racemic) [Compound 1565]
unit annotation: %
pest or weed control at 62.5 g/ha: 0
//
compound: CCc1nccc(NC(=O)[C@@H]2C(=O)N(C)C[C@H]2c2ccc(C(F)(F)F)cc2)c1Cl (racemic) [Compound 1538]
unit annotation: %
pest or weed control at 62.5 g/ha: 30
//
compound: CCc1nnc(NC(=O)[C@@H]2C(=O)N(C)C[C@H]2c2ccc(C(F)(F)F)cc2)s1 (racemic) [Compound 1558]
unit annotation: %
pest or weed control at 62.5 g/ha: 0

----------
- Tested on: ryegrass, Italian (Italian ryegrass, Lolium multiflorum)
- test description: Test A preemergence
- Assay type: in vivo
- stated conditions: Lolium multiflorum, pre-emergence, 240 h, 500 g ai/ha, Preemergence, visual injury vs untreated controls after approximately 10 d; read-out: Ryegrass, Italian plant response rating (0 to 100 scale where 0 is no effect and 100 is complete control)
Each item that follows carries a reported pest or weed control at 500 g/ha.

compound string: Cc1c(F)ccc([C@H]2CN(C)C(=O)[C@@H]2C(=O)Nc2ccc(F)cc2F)c1F
unit annotation: %
pest or weed control at 500 g/ha: 70
//
compound string: Cc1c(F)ccc([C@H]2CNC(=O)[C@@H]2C(=O)Nc2ccc(F)c(F)c2F)c1F
unit annotation: %
pest or weed control at 500 g/ha: 30
//
compound string: O=C1NC[C@H](c2cc(F)c(C(F)(F)F)c(F)c2)[C@H]1C(=O)Nc1ccccc1F
unit annotation: %
pest or weed control at 500 g/ha: 70
//
compound string: CSc1ccccc1NC(=O)[C@H]1C(=O)N(C)C[C@@H]1c1cc(C)cc(F)c1
unit annotation: %
pest or weed control at 500 g/ha: 70
//
compound string: CC(F)(F)c1cccc([C@H]2CNC(=O)[C@@H]2C(=O)Nc2ccc(F)cc2F)c1
unit annotation: %
pest or weed control at 500 g/ha: 50

----------
- Tested on: pigweed (Amaranthus retroflexus)
- test description: Test A postemergence
- Assay type: in vivo
- stated conditions: 125 g ai/ha, postemergence; visual rating after approx. 10 d, 0 to 100 scale (0 no effect, 100 complete control)

compound: CN1CC(c2cc(F)cc(F)c2)C(C(=O)Nc2cccc(F)c2F)C1=O (centres unmarked) [Compound 644]
study system: pigweed (Amaranthus retroflexus)
Plant response rating, Pigweed: 20
--
compound: O=C1NCC(c2ccsc2Br)C1C(=O)Nc1cccc(F)c1F (centres unmarked) [Compound 598]
study system: pigweed (Amaranthus retroflexus)
Plant response rating, Pigweed: 0
--
compound: CC(C)Oc1cccc(C2CN(C)C(=O)C2C(=O)Nc2ccccc2S(C)(=O)=O)c1 (centres unmarked) [Compound 653]
study system: pigweed (Amaranthus retroflexus)
Plant response rating, Pigweed: 0
--
compound: CN1CC(c2cccc(OC(F)F)c2)C(C(=O)Nc2ccc(F)cc2F)C1=O (centres unmarked) [Compound 617]
study system: pigweed (Amaranthus retroflexus)
Plant response rating, Pigweed: 30
--
compound: CN1CC(c2cc(F)cc(F)c2)C(C(=O)Nc2ccc(F)cc2F)C1=O (centres unmarked) [Compound 645]
study system: pigweed (Amaranthus retroflexus)
Plant response rating, Pigweed: 0
--
compound: O=C1NCC(c2cccc(C(F)(F)F)c2F)C1C(=O)Nc1cccc(F)c1F (centres unmarked) [Compound 591]
study system: pigweed (Amaranthus retroflexus)
Plant response rating, Pigweed: 20
--
compound: CN1CC(c2cccc(C(F)(F)F)c2)C(C(=O)Nc2cccc(C#N)c2F)C1=O (centres unmarked) [Compound 576]
study system: pigweed (Amaranthus retroflexus)
Plant response rating, Pigweed: 0
--
compound: O=C1NCC(c2ccc(Oc3ccccc3)cc2)C1C(=O)Nc1ccc(F)cc1F (racemic) [Compound 535]
study system: pigweed (Amaranthus retroflexus)
Plant response rating, Pigweed: 0
